Source listed as patent US7262301B1.

Experimental Protocol: Binding constant determination: fluorescence intensity ratio (or UV absorbance) in Zn2+/EGTA buffered solutions
Measurement Setup: pH 7.20; fluorescence intensity ratio between 395 nm and 443 nm against log[Zn2+]free; read-out: apparent dissociation constant (Kd) for Zn^2+
Measurement Kind: pKd
The meaning of pKd here: minus log10 of the concentration in molar units.

Challenge: Entry COc1cc(O)c(-c2nc3c(CNCc4ccccn4)cccc3o2)cc1OC : reported pKd = ?
Response given: 8.66
